Listing: IC50 of selected compounds
- TARGET: Aldehyde dehydrogenase, mitochondrial (Mesocricetus auratus)
- TEST_NAME: Inhibition of hamster liver aldehyde dehydrogenase ALDH-2
MEASURED_QUANTITY: IC50

COMPOUND	MEASURED
CCOC(=O)CCCCOc1ccc2c(=O)c(-c3ccc(O)cc3)coc2c1	0.24 µM
CCCCCCC(Oc1ccc2c(=O)c(-c3ccc(O)cc3)coc2c1)C(=O)O (stereo not given)	2 µM
NCCCCOc1ccc2c(=O)c(-c3ccc(O)cc3)coc2c1	0.25 µM
O=C(O)CCCCCCCCCOc1ccc2c(=O)c(-c3ccc(O)cc3)coc2c1	0.05 µM
O=C(O)CCCCCCCCCCCCCCCOc1ccc2c(=O)c(-c3ccc(O)cc3)coc2c1	> 9 µM
